# targetOfAssay: Toll-like receptor 9 (Homo sapiens)
# assayExplanation: Antagonist activity at TLR9 in human PBMC assessed as inhibition of ODN2216-induced IFNalpha production preincubated for 30 mins followed by ODN2216 addition and measured after 20 hrs by alphaLISA
# Assay type: cell-based
parameterMeasured: IC50 (µM)

smi: Cc1cc(-c2ccc(=O)n(C)c2)cc2cn(C3CCNCC3)nc12
parameterMeasured: IC50
numericValue: 2

1: Cn1cc(-c2ccc3nc(N4CCN(C5CCC5)CC4)ncc3c2)ccc1=O
2: Cc1cc(=O)n(C)cc1-c1cc(C)c2nn(C3CCNCC3)cc2c1
3: Cc1cc(-c2cc(C)c3nn(C4CCNCC4)cc3c2)cn(C)c1=O
Exercise: Order the items by recorded IC50; the first position goes to the largest value. Dear reader, please state the labels in the requested order.
Solution: 2, 1, 3

###

# targetOfAssay: Toll-like receptor 9 (Mus musculus)
# Sequence (Q9EQU3 whole entry): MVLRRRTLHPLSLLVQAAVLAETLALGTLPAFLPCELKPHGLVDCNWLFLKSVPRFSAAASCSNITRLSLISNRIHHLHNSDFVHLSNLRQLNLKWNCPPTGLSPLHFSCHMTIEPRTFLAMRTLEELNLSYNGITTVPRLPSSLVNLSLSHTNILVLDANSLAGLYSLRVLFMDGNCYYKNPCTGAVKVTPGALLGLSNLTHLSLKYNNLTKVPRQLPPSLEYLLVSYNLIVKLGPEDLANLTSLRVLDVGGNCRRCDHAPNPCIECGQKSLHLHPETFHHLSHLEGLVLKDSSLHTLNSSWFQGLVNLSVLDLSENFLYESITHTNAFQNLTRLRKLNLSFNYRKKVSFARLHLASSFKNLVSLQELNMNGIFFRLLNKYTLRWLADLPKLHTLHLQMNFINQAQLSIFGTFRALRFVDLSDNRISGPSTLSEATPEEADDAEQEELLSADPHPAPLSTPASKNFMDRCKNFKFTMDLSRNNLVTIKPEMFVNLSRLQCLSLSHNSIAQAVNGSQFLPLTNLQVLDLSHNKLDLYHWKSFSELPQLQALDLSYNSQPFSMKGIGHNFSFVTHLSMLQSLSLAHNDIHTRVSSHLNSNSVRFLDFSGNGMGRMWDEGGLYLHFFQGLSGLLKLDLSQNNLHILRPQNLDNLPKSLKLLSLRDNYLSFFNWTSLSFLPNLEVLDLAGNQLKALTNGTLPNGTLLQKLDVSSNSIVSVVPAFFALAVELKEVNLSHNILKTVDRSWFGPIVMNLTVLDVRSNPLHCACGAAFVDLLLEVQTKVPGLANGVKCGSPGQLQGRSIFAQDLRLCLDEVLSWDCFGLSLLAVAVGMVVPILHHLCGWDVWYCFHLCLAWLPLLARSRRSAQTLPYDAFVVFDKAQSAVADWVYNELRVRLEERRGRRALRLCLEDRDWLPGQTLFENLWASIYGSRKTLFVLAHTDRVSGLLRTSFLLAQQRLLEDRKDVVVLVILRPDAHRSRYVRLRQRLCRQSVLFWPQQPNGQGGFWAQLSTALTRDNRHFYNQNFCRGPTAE
# assayExplanation: Antagonist activity at TLR9 in mouse whole blood inhibition of DOTAP-ODN2216-induced IFNalpha production preincubated for 30 mins followed by DOTAP-ODN2216 addition and measured after 20 hrs by ELISA
pIC50: −log10 of the molar value.
parameterMeasured: pIC50

Exercise: Please give the measured pIC50 for this compound: O=c1ccc(-c2cc(C(F)(F)F)c3nn([C@H]4CCNC[C@@H]4F)cc3c2)c2n1CCC2
Solution: < 5.00

###

# targetOfAssay: Toll-like receptor 9 (Homo sapiens, UniProt Q9NR96)
# Sequence (Q9NR96 whole entry): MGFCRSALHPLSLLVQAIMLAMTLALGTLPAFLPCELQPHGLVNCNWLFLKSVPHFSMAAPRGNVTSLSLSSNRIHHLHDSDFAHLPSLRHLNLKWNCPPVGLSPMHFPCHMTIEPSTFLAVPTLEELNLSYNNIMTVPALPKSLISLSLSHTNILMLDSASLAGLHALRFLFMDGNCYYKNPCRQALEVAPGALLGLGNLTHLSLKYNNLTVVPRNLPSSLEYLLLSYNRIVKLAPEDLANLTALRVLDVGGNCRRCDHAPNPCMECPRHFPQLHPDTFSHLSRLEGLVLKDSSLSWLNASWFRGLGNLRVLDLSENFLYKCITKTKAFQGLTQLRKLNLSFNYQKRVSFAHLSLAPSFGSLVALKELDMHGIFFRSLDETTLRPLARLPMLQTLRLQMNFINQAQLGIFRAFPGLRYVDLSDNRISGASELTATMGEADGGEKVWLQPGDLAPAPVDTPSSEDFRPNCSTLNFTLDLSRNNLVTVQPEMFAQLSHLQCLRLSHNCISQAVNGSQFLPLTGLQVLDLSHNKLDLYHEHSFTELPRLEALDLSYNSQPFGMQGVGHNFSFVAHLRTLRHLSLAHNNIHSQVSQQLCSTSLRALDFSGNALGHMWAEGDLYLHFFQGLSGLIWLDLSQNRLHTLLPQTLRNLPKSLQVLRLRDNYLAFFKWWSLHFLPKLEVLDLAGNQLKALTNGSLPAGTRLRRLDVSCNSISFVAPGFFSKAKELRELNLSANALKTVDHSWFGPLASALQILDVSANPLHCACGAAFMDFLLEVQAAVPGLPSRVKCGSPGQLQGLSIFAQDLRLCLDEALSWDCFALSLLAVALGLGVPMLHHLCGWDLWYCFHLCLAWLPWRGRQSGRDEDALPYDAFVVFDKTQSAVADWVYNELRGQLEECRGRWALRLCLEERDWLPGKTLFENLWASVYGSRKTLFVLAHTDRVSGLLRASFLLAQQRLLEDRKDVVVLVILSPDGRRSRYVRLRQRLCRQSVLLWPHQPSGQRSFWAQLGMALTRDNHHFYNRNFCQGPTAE
# assayExplanation: Antagonist activity at TLR9 in human PBMC assessed as inhibition of ODN2216-induced IFNalpha production preincubated for 30 mins followed by ODN2216 addition and measured after 20 hrs by alphaLISA
# Type: cell-based
pIC50: −log10 of the molar value.
Listing of recorded pIC50 by entry.

In the examples that follow, each entry is paired with its recorded pIC50.
smi: Cc1cc(-c2ccc(=O)n(C)c2C)cc2cn(C3CCNCC3)nc12
targetOfAssay: Toll-like receptor 9 (Homo sapiens, UniProt Q9NR96)
pIC50: < 5.00
//
smi: Cc1cc(-c2ccc(=O)n(C)c2)cc2cnc(N3CCN(C(C)C)CC3)nc12
targetOfAssay: Toll-like receptor 9 (Homo sapiens, UniProt Q9NR96)
pIC50: < 5.00

Next molecule, please.
Exercise: Please give the measured pIC50 for this molecule: O=c1ccc(-c2cc(C(F)(F)F)c3nn([C@H]4CCNC[C@@H]4F)cc3c2)c2n1CCC2
Solution: < 5.28
